- System: Vero 76 cells
- TEST_METHOD_NOTES: cells
- Assay type: cell-based, African green monkey
- STATED_CONDITIONS: Chlorocebus sabaeus, Vero 76, read-out: Neutral red uptake assay IC50
Field: pIC50. Provide a value for each of the compounds that follow.
Numbers only, as −log10 of the molar value.

Below, each entry is followed by its recorded pIC50 result.
| COMPOUND | VALUE |
| --- | --- |
| c1ccc2c(c1)Nc1ccccc1O2 | 4.13 |
| c1ccc2c(c1)Nc1ccccc1S2 | 4.25 |
| c1ccc2c(c1)Oc1ccccc1S2 | 3.07 |

Would you be so kind as to report pIC50 for each listed record?
1. CCN(CC)C(C)CN1c2ccccc2Sc2ccccc21 (stereo not shown)
2. COc1ccc2c(c1)N(C[C@H](C)CN(C)C)c1ccccc1S2
3. CN(C)CCCN1c2ccccc2Sc2ccccc21
4. CN1CCN(CCCN2c3ccccc3Sc3ccc(C(F)(F)F)cc32)CC1 [Trifluoperazine dimaleate]

[4.21, 4.59, 4.87, 5.02]

Where do the numbers come from? From paper PMC2582943.
